Listing of entries alongside the reported growth inhibition.
# METHOD_SUMMARY: NCI Yeast Anticancer Drug Screen. Data for the sgs1 mgt1 strain (AID 161);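 further: 0% = growth of cultures given vehicle only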
# CONDITION: S. cerevisiae sgs1 mgt1 strain, at 50.0 µM, hits give high values
The panel holds about 79,000 compounds, 15% with a hit somewhere; the sample as a whole holds those more often. Where a SMILES comes first, the peptide text is derived from it. Bridges are numbered along the chain shown (N, C = ends). [ ]: non-standard residue; d: D form. The star is where a group is joined. ξ: configuration not given here. ξNMePhe(4-NMe2) = CNC(Cc1ccc(N(C)C)cc1)C(=O)O; Picolinoyl(3-OH) = O=C(c1ncccc1O)*; ξPip(4-oxo) = O=C1CCNC(C(=O)O)C1; Phg = N[CH](C(=O)O)c1ccccc1; Abu = CC[CH](N)C(=O)O

{"MOLECULE": "COC(=O)c1ccccc1N(C)C", "MEASUREMENT_UNITS": "%", "growth inhibition": -3.8}
{"MOLECULE": "O=S(=O)(O)CC(O)CN1CCN(CCO)CC1 (stereo not drawn)", "MEASUREMENT_UNITS": "%", "growth inhibition": -36.8}
{"MOLECULE": "O=C(NCO)c1ccccc1", "MEASUREMENT_UNITS": "%", "growth inhibition": -1.65}
{"MOLECULE": "NC(=S)N/N=C/c1ccc(N)cc1", "MEASUREMENT_UNITS": "%", "growth inhibition": 0.9}
{"MOLECULE": "C/C(=N\\NC(=O)c1ccccc1N)c1ccccc1O", "MEASUREMENT_UNITS": "%", "growth inhibition": 26.6}
{"MOLECULE": "O=C(Cc1nc2ccc([N+](=O)[O-])cc2nc1CC(=O)c1ccccc1)c1ccccc1", "MEASUREMENT_UNITS": "%", "growth inhibition": -10.5}
{"MOLECULE": "CC1=C(/C=C/C(C)=C/C=C/C(C)=C/CO)C(C)(C)CCC1", "MEASUREMENT_UNITS": "%", "growth inhibition": -3.15}
{"MOLECULE": "O=C(/C=C\\c1ccc(O)cc1)c1ccccc1", "MEASUREMENT_UNITS": "%", "growth inhibition": 45.9}
{"MOLECULE": "Cc1cc(=O)[nH]c(NN=C2CCCC2)n1", "MEASUREMENT_UNITS": "%", "growth inhibition": -35.4}
{"MOLECULE": "C/C(=N\\O)C1(O)CCCCC1", "MEASUREMENT_UNITS": "%", "growth inhibition": 8}
{"MOLECULE": "OCC1OC(OC2C(O)C(CO)OC2(CO)OC2OC(CO)C(O)C(O)C2O)C(O)C(O)C1O (stereo not drawn)", "MEASUREMENT_UNITS": "%", "growth inhibition": -31.8}
{"MOLECULE": "Oc1ccc(O)cc1", "MEASUREMENT_UNITS": "%", "growth inhibition": -0.45}
{"MOLECULE": "O=C(CC(=O)c1ccccc1O)c1ccccc1", "MEASUREMENT_UNITS": "%", "growth inhibition": 34.4}
{"MOLECULE": "Cc1cc2nc(CC(=O)c3ccccc3)c(=O)[nH]c2cc1C", "MEASUREMENT_UNITS": "%", "growth inhibition": 13.3}
{"MOLECULE": "COCCOC(=O)c1ccc(C(C)C)cc1", "MEASUREMENT_UNITS": "%", "growth inhibition": 0.2}
{"MOLECULE": "CCCCOC(OCCCC)c1ccccc1", "MEASUREMENT_UNITS": "%", "growth inhibition": 20.7}
{"MOLECULE": "CSC(=N\\N=C\\c1ccc(N(C)C)cc1)/N=C/N(C)C", "MEASUREMENT_UNITS": "%", "growth inhibition": 6.05}
{"MOLECULE": "CCC1NC(=O)C(NC(=O)c2ncccc2O)C(C)OC(=O)C(c2ccccc2)NC(=O)C2CC(=O)CCN2C(=O)C(Cc2ccc(N(C)C)cc2)N(C)C(=O)C2CCCN2C1=O (stereo not drawn) (tested in a mixture with another compound) ({Picolinoyl(3-OH)}-T[Abu]P[ξNMePhe(4-NMe2)][ξPip(4-oxo)][Phg]; ester 1-C; configuration not given here)", "MEASUREMENT_UNITS": "%", "growth inhibition": 3.3}
